The measurements presented in this section are drawn from patent US5021408A.

experimentDescription: Systemic (thymolytic) activity, thymus weight reduction after oral administration
Type: in vivo, rat (Wistar)
testSettings: rat, in vivo, po
propertyMeasured: ED50 at 96 h (mg/kg)
Reply numerically in mg/kg, unit not repeated.

The following compounds have reported results that may help.
compound	readoutNumber
CCCCC(=O)O[C@]1(C(=O)COC(C)=O)CC[C@H]2[C@@H]3CCC4=CC(=O)C=C[C@]4(C)[C@H]3[C@@H](O)C[C@@]21C [Prednisolone-21-acetate-17-valerate, prednisolone-21-acetate-17-valerate]	9
CCCCC(=O)O[C@]1(C(=O)CSC(C)=O)CC[C@H]2[C@@H]3C[C@H](C)C4=CC(=O)C=C[C@]4(C)[C@H]3[C@@H](O)C[C@@]21C	43
CCC(=O)O[C@]1(C(=O)CSC(=O)CC)[C@@H](C)C[C@H]2[C@@H]3CCC4=CC(=O)C=C[C@]4(C)[C@@]3(F)[C@@H](O)C[C@@]21C	3

Shift focus to the following entry.
So for CCC(=O)O[C@]1(C(=O)CSC(C)=O)[C@@H](C)C[C@H]2[C@@H]3CCC4=CC(=O)C=C[C@]4(C)[C@@]3(F)[C@@H](O)C[C@@]21C , the logged ED50 at 96 h turned out to be 2.5
